EXPERIMENT DESCRIPTION: Solubility in aqueous and biorelevant media
Format: physicochemical
STUDY CONDITIONS: Fed state intestinal fluid FeSSIF pH 5.8; [pH] 5.85; read-out: Solubility (mg/mL) [pH]
MEASURE NAME: solubility (mg/mL)
Just the number please, in mg/mL, no unit attached.

Input: So what's the measured solubility for this one? CO[C@@H](C)c1c(NC(=O)Nc2cncc(C#N)c2)cnc2cc(C)nn12 [Example 1]
Output: 0.027

---

EXPERIMENT DESCRIPTION: Solubility in aqueous and biorelevant media
Type: physicochemical
STUDY CONDITIONS: Free form; Simulated Gastric Fluid (SGF) pH 2.0; [pH] 1.99; read-out: Solubility mg/mL [pH] Free form
MEASURE NAME: solubility (mg/mL)
Just the number please, in mg/mL, no unit attached.

Input: So what's the measured solubility for this one? CO[C@@H](C)c1c(NC(=O)Nc2ccnc(C(F)F)c2)cnc2cc(F)nn12 [Example 2]
Output: 0.338

---

EXPERIMENT DESCRIPTION: Solubility in aqueous and biorelevant media
Format: physicochemical
STUDY CONDITIONS: medium of pH 3.0 (composition not named), aqueous buffer; pH 3.0; [pH] 3.14; read-out: Solubility (mg/mL) [pH]
MEASURE NAME: solubility (mg/mL)
Just the number please, in mg/mL, no unit attached.

Input: So what's the measured solubility for this one? CO[C@@H](C)c1c(NC(=O)Nc2cnc(-n3nccn3)c(Cl)c2)cnc2cc(Cl)nn12 [Example 5]
Output: 0.0052

---

EXPERIMENT DESCRIPTION: Solubility in aqueous and biorelevant media
Format: physicochemical
STUDY CONDITIONS: aqueous buffer; Free form; 19.12 mM Sodium Maleate (blank FaSSIF) pH 6.5; [pH] 6.61; read-out: Solubility mg/mL [pH] Free form
MEASURE NAME: solubility (mg/mL)
Just the number please, in mg/mL, no unit attached.

Input: So what's the measured solubility for this one? CO[C@@H](C)c1c(NC(=O)Nc2ccnc(C(F)F)c2)cnc2cc(F)nn12 [Example 2]
Output: 0.026

---

EXPERIMENT DESCRIPTION: Solubility in aqueous and biorelevant media
Type: physicochemical
STUDY CONDITIONS: Water; [pH] 7.65; read-out: Solubility (mg/mL) [pH]
MEASURE NAME: solubility (mg/mL)
Just the number please, in mg/mL, no unit attached.

Input: So what's the measured solubility for this one? CO[C@@H](C)c1c(NC(=O)Nc2cncc(C#N)c2)cnc2cc(C)nn12
Output: 0.019

---

EXPERIMENT DESCRIPTION: Solubility in aqueous and biorelevant media
Format: physicochemical
STUDY CONDITIONS: simulated gastric fluid; Free form; HCl/KCl pH 1.0; [pH] 1.12; read-out: Solubility mg/mL [pH] Free form
MEASURE NAME: solubility

Input: So what's the measured solubility for this one? CO[C@@H](C)c1c(NC(=O)Nc2ccnc(C(F)F)c2)cnc2cc(F)nn12 [Example 2]
Output: > 2 mg/mL

---

EXPERIMENT DESCRIPTION: Solubility in aqueous and biorelevant media
Type: physicochemical
STUDY CONDITIONS: aqueous buffer; 100 mM Sodium Acetate pH 4.0; [pH] 4.04; read-out: Solubility (mg/mL) [pH]
MEASURE NAME: solubility (mg/mL)
Just the number please, in mg/mL, no unit attached.

Input: So what's the measured solubility for this one? CO[C@@H](C)c1c(NC(=O)Nc2cncc(C#N)c2)cnc2cc(C)nn12
Output: 0.019

---

EXPERIMENT DESCRIPTION: Solubility in aqueous and biorelevant media
Type: physicochemical
STUDY CONDITIONS: 19.12 mM Sodium Maleate Fasted state simulated intestinal fluid (FaSSIF) pH 6.5; [pH] 6.63; read-out: Solubility (mg/mL) [pH]
MEASURE NAME: solubility (mg/mL)
Just the number please, in mg/mL, no unit attached.

Input: So what's the measured solubility for this one? CO[C@@H](C)c1c(NC(=O)Nc2cncc(C#N)c2)cnc2cc(C)nn12
Output: 0.018

---

SYSTEM UNDER TEST: C-domain of MALT1 (amino acids 329-824) (Homo sapiens)
Sequence (Q9UDY8 329-824): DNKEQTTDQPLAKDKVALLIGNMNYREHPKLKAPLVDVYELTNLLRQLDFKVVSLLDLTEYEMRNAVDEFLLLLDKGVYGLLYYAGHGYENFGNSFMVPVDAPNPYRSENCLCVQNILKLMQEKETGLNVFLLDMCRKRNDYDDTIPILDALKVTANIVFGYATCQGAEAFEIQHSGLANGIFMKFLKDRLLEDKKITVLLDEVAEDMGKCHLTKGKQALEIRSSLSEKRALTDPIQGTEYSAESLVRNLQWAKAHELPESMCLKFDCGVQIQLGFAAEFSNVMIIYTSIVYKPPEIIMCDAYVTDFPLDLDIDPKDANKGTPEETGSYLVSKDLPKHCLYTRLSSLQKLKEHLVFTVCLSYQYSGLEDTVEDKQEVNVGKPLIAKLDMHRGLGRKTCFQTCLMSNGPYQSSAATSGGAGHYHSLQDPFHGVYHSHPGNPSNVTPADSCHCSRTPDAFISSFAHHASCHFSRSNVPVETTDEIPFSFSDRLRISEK
EXPERIMENT DESCRIPTION: MALT1 Biochemical Assay - Version 2 (fluorescence intensity)
Parameters: C-domain of MALT1 (amino acids 329-824)
STUDY CONDITIONS: fluorescence intensity readout, Rh110 substrate
MEASURE NAME: IC50 (nM)
Just the number please, in nM, no unit attached.

CC(C)[C@H](NC(=O)OCc1ccccc1)C(=O)N[C@@H](C)C(=O)N[C@@H](CC(=O)OC(C)(C)C)C(=O)COC(=O)c1c(Cl)cccc1Cl [Reference**, reference compound] : 6

Next up:
Input: For C-domain of MALT1 (amino acids 329-824) (Homo sapiens), provide IC50 of CO[C@@H](C)c1c(NC(=O)Nc2cnc(C(N)=O)c(Cl)c2)cnc2cc(F)nn12 please.
Output: 8

---

EXPERIMENT DESCRIPTION: Solubility in aqueous and biorelevant media
Format: physicochemical
STUDY CONDITIONS: Fed state intestinal fluid (FeSSIF); [pH] 6.87; read-out: Solubility (mg/mL) [pH]
MEASURE NAME: solubility (mg/mL)
Just the number please, in mg/mL, no unit attached.

Input: So what's the measured solubility for this one? CO[C@@H](C)c1c(NC(=O)Nc2cnc(-n3nccn3)c(Cl)c2)cnc2cc(Cl)nn12
Output: 0.0082

---

EXPERIMENT DESCRIPTION: Solubility in aqueous and biorelevant media
Format: physicochemical
STUDY CONDITIONS: Simulated Gastric Fluid (SGF) pH 2.0; [pH] 2.00; read-out: Solubility (mg/mL) [pH]
MEASURE NAME: solubility (mg/mL)
Just the number please, in mg/mL, no unit attached.

Input: So what's the measured solubility for this one? CO[C@@H](C)c1c(NC(=O)Nc2cncc(C#N)c2)cnc2cc(C)nn12 [Example 1]
Output: 0.024

---

SYSTEM UNDER TEST: C-domain of MALT1 (amino acids 329-824) (Homo sapiens, UniProt Q9UDY8)
Sequence (Q9UDY8 329-824): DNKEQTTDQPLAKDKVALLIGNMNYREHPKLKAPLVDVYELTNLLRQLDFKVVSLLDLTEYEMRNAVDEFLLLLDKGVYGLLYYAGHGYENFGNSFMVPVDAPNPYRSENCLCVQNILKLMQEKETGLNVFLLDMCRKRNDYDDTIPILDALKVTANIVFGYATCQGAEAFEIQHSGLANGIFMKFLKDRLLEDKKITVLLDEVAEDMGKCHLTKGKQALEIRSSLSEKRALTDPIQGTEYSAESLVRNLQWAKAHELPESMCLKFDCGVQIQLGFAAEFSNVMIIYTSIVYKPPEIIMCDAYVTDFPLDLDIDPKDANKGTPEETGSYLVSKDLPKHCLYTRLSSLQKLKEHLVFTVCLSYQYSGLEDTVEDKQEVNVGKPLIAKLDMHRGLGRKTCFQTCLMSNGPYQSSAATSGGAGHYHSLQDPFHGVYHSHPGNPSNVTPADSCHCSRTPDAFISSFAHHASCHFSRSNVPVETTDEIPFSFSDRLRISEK
EXPERIMENT DESCRIPTION: MALT1 Biochemical Assay - Version 1 (fluorescence lifetime)
Please respond with Fulfilled when measured IC50 is strictly beneath 10 nM, and with Not fulfilled in all other cases.

CO[C@@H](C)c1c(NC(=O)Nc2cncc(Cl)c2)cnc2cc(F)nn12 : Not fulfilled
CO[C@@H](C)c1c(NC(=O)Nc2cnc(-n3nccn3)c(C#N)c2)cnc2cc(C)nn12 : Fulfilled
CO[C@@H](C)c1c(NC(=O)Nc2cc(Cl)cnc2OC[C@H](C)N)cnc2cc(Cl)nn12 : Not fulfilled
COc1ncc(NC(=O)Nc2cnc3cc(Cl)nn3c2[C@H](C)O[C@H]2CCN(C(C)=O)C2)cc1C#N : Not fulfilled
COCC1(c2c(NC(=O)Nc3cncc(C#N)c3)cnc3cc(Cl)nn23)CC1 : Not fulfilled

Input: Consider the molecule CO[C@@H](C)c1c(NC(=O)Nc2cncc(C(F)F)c2)cnc2cc(F)nn12 . Is its IC50 strictly less than 10 nM?
Output: Not fulfilled

Input: What about COCC(OC)c1c(NC(=O)Nc2cnc(-n3nccn3)c(C#N)c2)cnc2cc(Cl)nn12 (stereo not shown) ?
Output: Fulfilled

Input: What about CO[C@@H](C)c1c(NC(=O)Nc2ccnc(C#N)c2)cnc2cc(F)nn12 ?
Output: Not fulfilled

Input: What about COc1ncc(NC(=O)Nc2cnc3cc(Cl)nn3c2[C@@H](OC)[C@H](C)OC)cc1C#N ?
Output: Fulfilled

Input: What about CC(C)[C@H](NC(=O)OCc1ccccc1)C(=O)N[C@@H](C)C(=O)N[C@@H](CC(=O)OC(C)(C)C)C(=O)COC(=O)c1c(Cl)cccc1Cl [Reference**, reference compound] ?
Output: Not fulfilled

Input: What about COc1ncc(NC(=O)Nc2cnc3cc(C)nn3c2[C@H](C)OC)cc1C#N ?
Output: Not fulfilled

Input: What about CO[C@H](c1c(NC(=O)Nc2cnc(-n3nccn3)c(C(F)(F)F)c2)cnc2cc(Cl)nn12)C(C)C ?
Output: Fulfilled

Input: What about CO[C@H](c1c(NC(=O)Nc2cnc(-n3nccn3)c(Cl)c2)cnc2cc(F)nn12)C(C)C ?
Output: Fulfilled

Input: What about Cc1cc2ncc(NC(=O)Nc3cncc(C#N)c3)c([C@H](C)O)n2n1 ?
Output: Not fulfilled

Input: What about CO[C@@H](C)c1c(NC(=O)Nc2cc[n+]([O-])c(C(F)F)c2)cnc2cc(F)nn12 ?
Output: Not fulfilled

Input: What about CO[C@@H](C)c1c(NC(=O)Nc2ccnc(C(O)C(F)(F)F)c2)cnc2cc(Cl)nn12 (stereo partly shown) ?
Output: Fulfilled

Hey, just so you know, these numbers are from patent US20200289514A1.
